tested on: human ovarian cancer SK-OV-3; settings: D22; 24 mg/kg, D0-4 IV; SK-OV-3 xenograft in nude mice
Property name: Tumor volume (mm^3) (D22)
Please report the result as a number followed by the unit.

These solved cases illustrate the format of a correct answer.
CCN(C)CC[C@@H](F)C(=O)O[C@@H](C(=O)O[C@H]1C[C@@]2(O)[C@@H](OC(=O)c3ccccc3)[C@@H]3[C@]4(OC(C)=O)CO[C@@H]4C[C@H](O)[C@@]3(C)C(=O)[C@H](OC(C)=O)C(=C1C)C2(C)C)[C@@H](NC(=O)c1ccccc1)c1ccccc1.CS(=O)(=O)O    55.7 ± 10.6 mm^3
CC(=O)O[C@H]1C(=O)[C@@]2(C)[C@H]([C@H](OC(=O)c3ccccc3)[C@]3(O)C[C@H](OC(=O)[C@H](OC(=O)C(CCN(C)C)C(F)F)[C@@H](NC(=O)c4ccccc4)c4ccccc4)C(C)=C1C3(C)C)[C@]1(OC(C)=O)CO[C@@H]1C[C@@H]2O.Cl (some centres unmarked)    61.2 ± 13.5 mm^3
CC(=O)OC1C(=O)C2(C)C(O)CC3OCC3(OC(C)=O)C2C(OC(=O)c2ccccc2)C2(O)CC(OC(=O)C(OC(=O)C(F)CC(C)N(C)C)C(NC(=O)c3ccccc3)c3ccccc3)C(C)=C1C2(C)C.O=C(O)C=CC(=O)O (centres unmarked)    70.8 ± 16.8 mm^3
CC(=O)O[C@H]1C(=O)[C@@]2(C)[C@H]([C@H](OC(=O)c3ccccc3)[C@]3(O)C[C@H](OC(=O)[C@H](OC(=O)C(F)CCN(C)C(C)C)[C@@H](NC(=O)c4ccccc4)c4ccccc4)C(C)=C1C3(C)C)[C@]1(OC(C)=O)CO[C@@H]1C[C@@H]2O.Cl (some centres unmarked)    60.4 ± 12.3 mm^3

Next compound, please.
CC(=O)OC1C(=O)C2(C)C(O)CC3OCC3(OC(C)=O)C2C(OC(=O)c2ccccc2)C2(O)CC(OC(=O)C(OC(=O)C(CCN(C)C)C(F)(F)F)C(NC(=O)c3ccccc3)c3ccccc3)C(C)=C1C2(C)C.Cc1ccc(S(=O)(=O)O)cc1 (centres unmarked) has a reported Tumor volume (mm^3) (D22) of 57.3 ± 11.4 mm^3

###

experiment: In vitro dissociation in blood plasma of rat; type: in vitro ADME, SD rats; details: fresh SD rat plasma, 37° C., 10 min incubation
Each entry below carries its reported Sampling time/Dissociation percent (%) 10 min.
Please report the result as a number followed by the unit.

These solved cases illustrate the format of a correct answer.
CC(=O)O[C@H]1C(=O)[C@@]2(C)[C@H]([C@H](OC(=O)c3ccccc3)[C@]3(O)C[C@H](OC(=O)[C@H](OC(=O)[C@@H](F)CCN(C)C)[C@@H](NC(=O)c4ccccc4)c4ccccc4)C(C)=C1C3(C)C)[C@]1(OC(C)=O)CO[C@@H]1C[C@@H]2O.CS(=O)(=O)O    100%
CC(=O)OC12COC1CC(O)C1(C)C(=O)C(O)C3=C(C)C(OC(=O)C(OC(=O)C(F)CCN(C)C)C(NC(=O)OC(C)(C)C)c4ccccc4)CC(O)(C(OC(=O)c4ccccc4)C21)C3(C)C.Cl (stereo not shown)    100%
CCCCC(CC(F)(C(=O)OC(C(=O)OC1CC2(O)C(OC(=O)c3ccccc3)C3C4(OC(C)=O)COC4CC(O)C3(C)C(=O)C(OC(C)=O)C(=C1C)C2(C)C)C(NC(=O)c1ccccc1)c1ccccc1)C(F)(F)F)N(C)C1CCCC1.Cl (mixture of isomers)    58.2%

Next compound, please.
CC(=O)O[C@H]1C(=O)[C@@]2(C)[C@H]([C@H](OC(=O)c3ccccc3)[C@]3(O)C[C@H](OC(=O)[C@H](OC(=O)[C@@H](F)CCN(C)C)[C@@H](NC(=O)c4ccccc4)c4ccccc4)C(C)=C1C3(C)C)[C@]1(OC(C)=O)CO[C@@H]1C[C@@H]2O.Cl has a reported Sampling time/Dissociation percent (%) 10 min of 100%
